Source listed as patent US8026257B2.

# TESTED SYSTEM: hSERT (Homo sapiens, UniProt P31645)
# Sequence (P31645 whole entry): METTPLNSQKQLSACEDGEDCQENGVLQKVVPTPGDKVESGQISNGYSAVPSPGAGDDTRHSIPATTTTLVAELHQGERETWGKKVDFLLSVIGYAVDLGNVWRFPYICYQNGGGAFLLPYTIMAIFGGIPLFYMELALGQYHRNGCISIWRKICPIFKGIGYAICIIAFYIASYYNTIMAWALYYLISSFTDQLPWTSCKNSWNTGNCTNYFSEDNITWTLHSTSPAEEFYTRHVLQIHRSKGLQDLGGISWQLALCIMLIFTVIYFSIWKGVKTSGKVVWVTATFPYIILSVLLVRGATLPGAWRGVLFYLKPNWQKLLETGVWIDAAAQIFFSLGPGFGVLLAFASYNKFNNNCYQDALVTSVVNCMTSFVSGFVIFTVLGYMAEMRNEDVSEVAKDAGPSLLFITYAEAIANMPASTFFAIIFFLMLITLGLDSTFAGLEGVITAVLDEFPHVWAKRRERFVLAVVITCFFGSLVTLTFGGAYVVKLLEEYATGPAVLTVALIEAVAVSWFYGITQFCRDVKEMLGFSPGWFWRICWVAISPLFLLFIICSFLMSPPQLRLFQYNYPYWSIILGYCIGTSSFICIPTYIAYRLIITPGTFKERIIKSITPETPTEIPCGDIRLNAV
# EXPERIMENT NOTES: SERT radioligand binding assay ([125I]RTI-55, HEK-hSERT membranes)
# MEASUREMENT CONTEXT: HEK-293 hSERT membranes, 260 pM [125I]RTI-55, 1 hour at room temperature; read-out: SERT IC50
ENDPOINT NAME: IC50

Here are 3 compounds together with their reported answers.
[
  {
    "COMPOUND": "CCn1cnc2c(C(C)OCC3(c4ccc(F)cc4)CCN(C)CC3)cc(C(F)(F)F)cc21 (single isomer, unassigned) [Example 136]",
    "IC50": "0.01 to 100 nM"
  },
  {
    "COMPOUND": "Cc1cc(COCC2(c3ccccc3)CCNCC2)c2nn(C)cc2c1",
    "IC50": "0.01 to 100 nM"
  },
  {
    "COMPOUND": "FC(F)(F)c1cc(COCC2(c3ccccc3)CCNCC2)c2[nH]nc(Br)c2c1",
    "IC50": "0.01 to 100 nM"
  }
]

Input: Name the reported IC50 value associated with the compound CN1CCC(COCc2nc3cc(-c4ccc(C#N)cc4)ccc3n2CC2CC2)(c2ccccc2)CC1
Output: 0.01 to 100 nM

* * *

What follows is a record of pIC50 for UniProtKB P25103.
pIC50: −log10 of the molar value.

Here are 5 molecules together with their reported answers.
[
  {
    "MOLECULE": "CN(C)CC(OCC1(c2ccc(F)cc2)CCNCC1)c1cc(Cl)cc2cn[nH]c12 (stereo not drawn)",
    "pIC50": "< 6.52"
  },
  {
    "MOLECULE": "CC(OCC1(c2ccc(F)cc2)CCN(C)CC1)c1cc(Cl)cc2cn(C3CC3)nc12 (racemic)",
    "pIC50": "7.00 to 11.00"
  },
  {
    "MOLECULE": "Cc1n[nH]c2c(C(C)OCC3(c4ccccc4)CCN(C)CC3)cc(C(F)(F)F)cc12 (racemic)",
    "pIC50": "7.00 to 11.00"
  },
  {
    "MOLECULE": "CN(C)CC(OCC1(c2ccc(F)cc2)CCN(C)CC1)c1cc(Cl)cc2cn[nH]c12 (stereo not drawn)",
    "pIC50": "< 6.52"
  },
  {
    "MOLECULE": "C[C@@H](OCC1(c2ccc(F)cc2)CCN(C)CC1)c1cc(Cl)cc2c(Cl)n(CC(F)(F)F)nc12 [Example 116]",
    "pIC50": "7.00 to 11.00"
  }
]

Input: Name the reported pIC50 value associated with the molecule CC(OCC1(c2ccc(F)cc2)CCN(C)CC1)c1cc(C(F)(F)F)cc2cn(C)nc12 (single isomer, unassigned) [Example 29]
Output: < 6.52

Input: Name the reported pIC50 value associated with the molecule CC(OCC1(c2ccc(F)cc2)CCN(C)CC1)c1cc(Cl)cc2c(Br)n[nH]c12 (racemic)
Output: 7.00 to 11.00

Input: Name the reported pIC50 value associated with the molecule C[C@H](OCC1(c2ccc(F)cc2)CCN(C)CC1)c1cc(Cl)cc2c(Cl)n[nH]c12
Output: < 6.52

Input: Name the reported pIC50 value associated with the molecule CC(OCC1(c2ccc(F)cc2)CCN(C)CC1)c1cc(Br)cc2cn[nH]c12 (racemic)
Output: 7.00 to 11.00

Input: Name the reported pIC50 value associated with the molecule C[C@H](OCC1(c2ccc(F)cc2)CCNCC1)c1cc(Cl)cc2c(Cl)n[nH]c12
Output: < 6.52

Input: Name the reported pIC50 value associated with the molecule CCn1cnc2c([C@@H](C)OCC3(c4ccccc4)CCN(C)CC3)cc(C(F)(F)F)cc21
Output: 7.00 to 11.00

Input: Name the reported pIC50 value associated with the molecule CN1CCC(COCc2cc(C(F)(F)F)cc3cnn(C)c23)(c2ccc(F)cc2)CC1
Output: 7.00 to 11.00

* * *

Structures can show the parent of a compound that is named as a salt.
What follows is a record of IC50 for NK-1 (Homo sapiens).

[
  {
    "COMPOUND": "Cc1cc(C(C)OCC2(c3ccc(F)cc3)CCN(C)CC2)c2c(cnn2CC(F)F)c1 (racemic) [Example 60]",
    "IC50": "0.01 to 100 nM"
  },
  {
    "COMPOUND": "Cc1cc(C(C)OCC2(c3ccc(F)cc3)CCN(C)CC2)c2c(cnn2C2CC2)c1 (racemic) [Example 64]",
    "IC50": "0.01 to 100 nM"
  },
  {
    "COMPOUND": "CC(OCC1(c2ccccc2)CCN(C)CC1)c1cc(Cl)cc2cn[nH]c12 (racemic) [Example 39]",
    "IC50": "0.01 to 100 nM"
  }
]

Input: Name the reported IC50 value associated with the compound CC(OCC1(c2ccccc2)CCN(C)CC1)c1cc(C(F)(F)F)cc2ccn(C)c12 (racemic) [Example 71]
Output: 0.01 to 100 nM

Input: Name the reported IC50 value associated with the compound CC(OCC1(c2ccccc2)CCNCC1)c1cc(C(F)(F)F)cc2cn[nH]c12 (racemic) [Example 20]
Output: 0.01 to 100 nM

Input: Name the reported IC50 value associated with the compound CC(OCC1(c2ccccc2)CCNCC1)c1cc(Cl)cc2cn[nH]c12 (racemic) [Example 38]
Output: 0.01 to 100 nM

Input: Name the reported IC50 value associated with the compound CN1CCC(COCc2nc3cc(-c4ccc(Cl)cc4Cl)ccc3n2CC2CC2)(c2ccccc2)CC1 [Example 84]
Output: > 300 nM

Input: Name the reported IC50 value associated with the compound CC(OCC1(c2ccc(F)cc2)CCN(C)CC1)c1cc(F)cc2cn[nH]c12 (racemic) [Example 53]
Output: 0.01 to 100 nM

Input: Name the reported IC50 value associated with the compound CC(OCC1(c2ccc(F)cc2)CCN(C)CC1)c1cc(C(F)(F)F)cc2ccn(C)c12 (single isomer, unassigned) [Example 74]
Output: > 300 nM

Input: Name the reported IC50 value associated with the compound CC(OCC1(c2ccccc2)CCN(C)CC1)c1cc(Br)cc2c1ncn2CC1CC1 (single isomer, unassigned) [Example 131]
Output: 0.01 to 100 nM

Input: Name the reported IC50 value associated with the compound Cc1n[nH]c2c(C(C)OCC3(c4ccc(F)cc4)CCN(C)CC3)cc(Cl)cc12 (racemic) [Example 55]
Output: 0.01 to 100 nM

Input: Name the reported IC50 value associated with the compound CN1CCC(COCc2nc3cc(C(F)(F)F)ccc3n2CC2CC2)(c2ccccc2)CC1 [Example 86]
Output: > 300 nM

Input: Name the reported IC50 value associated with the compound CC(OCC1(c2ccc(F)cc2)CCNCC1)c1cc(C(F)(F)F)cc2cn[nH]c12 (single isomer, unassigned) [Example 22]
Output: 100 to 300 nM

Input: Name the reported IC50 value associated with the compound CN1CCC(COCc2nc3ccc(C(F)(F)F)cc3n2CC2CC2)(c2ccccc2)CC1 [Example 87]
Output: > 300 nM

Input: Name the reported IC50 value associated with the compound CN1CCC(COCc2cc(C(F)(F)F)cc3ccn(C)c23)(c2ccccc2)CC1 [Example 67]
Output: 0.01 to 100 nM

Input: Name the reported IC50 value associated with the compound CC(OCC1(c2ccc(F)cc2)CCN(C)CC1)c1cc(Cl)cc2[nH]c(=O)[nH]c12 (stereo not drawn) [Example 96, trifluoroacetic acid salt]
Output: 100 to 300 nM

Input: Name the reported IC50 value associated with the compound CC(OCC1(c2ccc(F)cc2)CCNCC1)c1cc(C(F)(F)F)cc2cnn(C)c12 (single isomer, unassigned) [Example 26]
Output: 100 to 300 nM

Input: Name the reported IC50 value associated with the compound CC(OCC1(c2ccc(F)cc2)CCN(C)CC1)c1cc(C(F)(F)F)cc2cn[nH]c12 (single isomer, unassigned) [Example 25]
Output: 0.01 to 100 nM
